# System: Digitaria sanguinalis
# METHOD_SUMMARY: Herbicidal activity against Digitaria sanguinalis (hairy crabgrass) assessed as growth inhibition at 150 g ai/ha using post-emergence protocol under greenhouse conditions measured 15 days after compound treatment
# Assay type: functional
# EXPERIMENTAL_SETUP: 360 h, read-out: GI
Kindly supply the reported inhibition of growth at 150 g/ha values for the records listed here.

Req: Recall the reported inhibition of growth at 150 g/ha of CCOc1cc(N2CC3=C(CCCC3)C2=O)c(F)cc1Cl on Digitaria sanguinalis and write it down.
Resp: > 80%

Req: Specify the recorded inhibition of growth at 150 g/ha for O=C1C2=C(CCCC2)C(O)N1c1cc(OCc2cccc(Cl)c2)c(Cl)cc1F (stereo unspecified) , system: Digitaria sanguinalis.
Resp: < 50%

Req: Look up and report inhibition of growth at 150 g/ha, with Digitaria sanguinalis as system, for COC1C2=C(CCCC2)C(=O)N1c1cc(OCc2cccc(Cl)c2)c(Cl)cc1F (stereo unspecified)
Resp: < 50%

Req: Look up Digitaria sanguinalis data: inhibition of growth at 150 g/ha of CCOC(=O)COc1cc(N2C(=O)C3CCCCC3C2=O)c(F)cc1Cl (stereo unspecified) , then report it.
Resp: < 50%

Req: Give reported inhibition of growth at 150 g/ha for Cc1nn(-c2cc(NS(C)(=O)=O)c(Cl)cc2Cl)c(=O)n1C(F)F [SULFENTRAZONE] (Digitaria sanguinalis)
Resp: < 50%

Req: Please report the measured inhibition of growth at 150 g/ha for CCOc1cc(N2CC3=C(CCCC3)C2=O)c(Cl)cc1Cl tested on Digitaria sanguinalis.
Resp: < 50%

Req: Write down the reported inhibition of growth at 150 g/ha (system: Digitaria sanguinalis) of CC(C)Oc1cc(N2C(=O)C3CCCCC3C2O)c(F)cc1Cl (stereo unspecified)
Resp: < 50%

Req: Provide Digitaria sanguinalis inhibition of growth at 150 g/ha reading for C=CCOC1C2=C(CCCC2)C(=O)N1c1cc(OCc2cccc(Cl)c2)c(Cl)cc1F (stereo unspecified) .
Resp: 50%

Req: Report inhibition of growth at 150 g/ha under test system Digitaria sanguinalis for C=CCOc1cc(N2CC3=C(CCCC3)C2=O)c(F)cc1Cl .
Resp: > 80%

Req: Please look at C=CCOC1C2=C(CCCC2)C(=O)N1c1cc(O)c(Br)cc1F (stereo unspecified) and tell me its recorded inhibition of growth at 150 g/ha on Digitaria sanguinalis.
Resp: 50%

Req: Lab note: Digitaria sanguinalis assay, enter inhibition of growth at 150 g/ha for CCOC(=O)C(C)Oc1cc(N2C(=O)C3CCCCC3C2O)c(F)cc1Cl (stereo unspecified) here
Resp: < 50%

###

# Test system: Setaria viridis
# METHOD_SUMMARY: Herbicidal activity against Setaria viridis assessed as growth inhibition at 150 g ai/ha using post-emergence protocol under greenhouse conditions measured 15 days after compound treatment
# Assay type: functional
# EXPERIMENTAL_SETUP: 360 h, read-out: GI
Task for the reader: assign each of the following molecules its reported inhibition of growth at 150 g/ha.

Req: Write down the reported inhibition of growth at 150 g/ha (system: Setaria viridis) of Nc1cc(N2CC3=C(CCCC3)C2=O)ccc1Cl
Resp: < 50%

Req: State inhibition of growth at 150 g/ha on Setaria viridis. Entry: C#CCOc1cc(N2C(=O)C3CCCCC3C2O)c(F)cc1Cl (centres undefined)
Resp: < 50%

Req: Give the observed inhibition of growth at 150 g/ha of CCOC(=O)COc1cc(N2C(=O)C3CCCCC3C2O)c(F)cc1Cl (centres undefined) for Setaria viridis.
Resp: < 50%

Req: Please indicate recorded inhibition of growth at 150 g/ha of C=CCOC1C2=C(CCCC2)C(=O)N1c1cc(OCC)c(Cl)cc1F (centres undefined) measured with Setaria viridis.
Resp: 50%

Req: Lab note: record inhibition of growth at 150 g/ha of C=CCOC1C2=C(CCCC2)C(=O)N1c1cc(OCc2cccc(Cl)c2)c(Cl)cc1F (centres undefined) tested on Setaria viridis.
Resp: < 50%

Req: Recall the reported inhibition of growth at 150 g/ha of O=C1C2=C(CCCC2)C(O)N1c1cc(OCc2cccc(F)c2)c(Cl)cc1F (centres undefined) when tested on Setaria viridis.
Resp: < 50%

Req: For Setaria viridis, give the measured inhibition of growth at 150 g/ha of the entry CCCOc1cc(N2CC3=C(CCCC3)C2=O)c(Cl)cc1Cl
Resp: < 50%

Req: Answer with inhibition of growth at 150 g/ha of CCCOc1cc(N2CC3=C(CCCC3)C2=O)c(F)cc1Cl measured for Setaria viridis.
Resp: > 80%

Req: Send back Setaria viridis inhibition of growth at 150 g/ha of O=C1C2CCCCC2C(O)N1c1cc(OC2CCCC2)c(Cl)cc1F (centres undefined) only.
Resp: < 50%

Req: Write inhibition of growth at 150 g/ha of C=CCOc1cc(N2C(=O)C3CCCCC3C2O)c(F)cc1Cl (centres undefined) ; system used: Setaria viridis
Resp: < 50%

Req: Tell me inhibition of growth at 150 g/ha of CCOC(=O)C(C)Oc1cc(N2C(=O)C3CCCCC3C2=O)c(F)cc1Cl (centres undefined) when tested on Setaria viridis.
Resp: < 50%

Req: Find the measured inhibition of growth at 150 g/ha of CC(C)Oc1cc(N2CC3=C(CCCC3)C2=O)c(F)cc1Cl with Setaria viridis as test system.
Resp: 50%

Req: Supply inhibition of growth at 150 g/ha measured with Setaria viridis for CCOc1cc(Cl)c([N+](=O)[O-])cc1N1C(=O)C2=C(CCCC2)C1O (centres undefined) .
Resp: < 50%

Req: Provide the reported inhibition of growth at 150 g/ha (system: Setaria viridis) for CC(C)Oc1cc(N2C(=O)C3CCCCC3C2O)c(F)cc1Cl (centres undefined)
Resp: < 50%

Req: Report value only: inhibition of growth at 150 g/ha, Setaria viridis, COc1cc(N2C(=O)C3CCCCC3C2=O)c(F)cc1Cl (centres undefined)
Resp: 50%

Req: Given COC1C2=C(CCCC2)C(=O)N1c1cc(OCc2cccc(Cl)c2)c(Cl)cc1F (centres undefined) , report its inhibition of growth at 150 g/ha on Setaria viridis.
Resp: < 50%

Req: Report inhibition of growth at 150 g/ha under test system Setaria viridis for COc1cc(N2C(=O)C3=C(CCCC3)C2OC)c(F)cc1Cl (centres undefined) .
Resp: 50%

Req: Report measured inhibition of growth at 150 g/ha on Setaria viridis; entry: COc1cc(N2C(=O)C3CCCCC3C2O)c(F)cc1Cl (centres undefined)
Resp: < 50%

Req: Using Setaria viridis as the test system, report measured inhibition of growth at 150 g/ha of C=CCOc1cc(N2CC3=C(CCCC3)C2=O)c(F)cc1Cl .
Resp: > 80%

Taken from ChEMBL document CHEMBL3046018.
